Measured values drawn from PubChem BioAssay (NCI) for this set.

- PROTOCOL_DESCRIPTION: NCI Yeast Anticancer Drug Screen. Data for the rad50 strain (AID 155);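 note: 0% = growth of vehicle-only cultures of the same strain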
- EXPERIMENTAL_SETUP: S. cerevisiae rad50 strain growth inhibition, stronger effect = higher value; at 50.0 µM unless noted
- Experimental: Growth inhibition of yeast strains with defined genetic alterations is measured as a screen for potential anti-cancer activity. Selected strains with alterations in DNA damage repair or cell cycle control were exposed to compounds and growth inhibition was measured relative to vehicle treated controls. The strain used in this assay is rad50
About 79,000 compounds went through this panel and 15% of them were active in at least one assay; those are over-represented in the sample as a whole. Active and inactive are the calls of the source. Cut-off read from the data, not from the text of the source: active = growth inhibition above about 70%; inactive = the rest.
growth inhibition values by entry

1) O=C(O)CCCn1nnc2c(=O)[nH][nH]c(=O)c21    7.3% (inactive)

Problem: State the recorded growth inhibition for this entry: CC1(CCC(=O)O)C(=O)C(=O)CC2C1CCC1(C)C(O)CCC21 (stereo unspecified)
Solution: -9.5% (inactive)

Problem: Try O=C(/C=C/c1ccc(OCc2ccccc2)cc1)c1cccc([N+](=O)[O-])c1 next.
Solution: 4.7% (inactive)

Problem: Try CCCCCc1cc[n+](CC(=O)c2ccc(F)cc2)cc1 next.
Solution: -6.55% (inactive)

Problem: Try CN(O)C(=O)CCC(NC(=O)CCC(N)C(=O)O)C(=O)NCC(=O)O (stereo unspecified) next.
Solution: -25.4% (inactive)

Problem: Try CC(CC(=O)O)(CC(=O)O)C(=O)O next.
Solution: 16.1% (inactive)
